measurement-notes: Inhibition of P-gp (unknown origin) expressed in human LCC6MDR cells assessed as reversal of paclitaxel resistance after 5 days by MTS/PMS assay
measured-metric: EC50 (µM)
Numbers only here, please. The scale is µM.

The following molecules have reported results that may help.
smiles-notation: O=c1cc(-c2ccc(OCCOCCOCCn3cc(CN(CCOc4ccc5c(=O)cc(-c6ccccc6)oc5c4)Cc4ccccc4)nn3)cc2)oc2ccccc12
EC50, µM: 0.275

smiles-notation: O=c1cc(-c2ccccc2)oc2cc(OCCCc3cn(CCOCCOCCOc4ccc(-c5cc(=O)c6cc(F)ccc6o5)cc4)nn3)ccc12
EC50, µM: 0.328

smiles-notation: O=c1cc(-c2ccc(OCCOCCn3cc(CCCOc4ccc5c(=O)cc(-c6ccccc6)oc5c4)nn3)cc2)oc2ccccc12
EC50, µM: 0.3

# context switch: different molecule, same EC50
# input # EC50 lookup, item Cc1ccc2oc(-c3ccc(OCCCCc4cn(CCN(CCOc5ccc(-c6cc(=O)c7ccccc7o6)cc5)Cc5ccccc5)nn4)cc3)cc(=O)c2c1
# output 0.679

* * *

measurement-notes: Inhibition of P-gp (unknown origin) expressed in human LCC6MDR cells assessed as potentiation of mitoxantrone-induced cytotoxicity after 5 days by MTS/PMS assay
measured-metric: pEC50
Here pEC50 is given on a logarithmic scale as minus log10 of the concentration in mol/L.

# input What value of pEC50 has been reported for the following molecule? COc1ccc2c3c([nH]c2c1)[C@H](CC(C)C)N1C(=O)[C@H](CCC(=O)OC(C)(C)C)NC(=O)[C@@H]1C3
# output 6.03

* * *

Reported log10 EC50 values are given for each entry in this list.
measurement-notes: Inhibition of BCRP in human MCF7/MX100 cells assessed as reversal of topotecan resistance after 5 days by MTS/PMS assay
The base-10 logarithm of EC50, taken with EC50 in nM, is what appears here.

Recorded results for 5 compounds are shown here.
smiles-notation: O=c1cc(-c2ccc(OCCOCCn3cc(CN(CCOc4ccc5c(=O)cc(-c6ccccc6)oc5c4)Cc4ccccc4)nn3)cc2)oc2ccccc12
log10 EC50: 2.31
//
smiles-notation: COC(=O)c1cccc(COc2c(-c3ccc(OCCOCCOCCn4cc(-c5cccc(-c6cn(CCOCCOCCOc7ccc(-c8oc9ccccc9c(=O)c8OCc8cccc(C(=O)OC)c8)cc7)nn6)c5)nn4)cc3)oc3ccccc3c2=O)c1
log10 EC50: 1.11
//
smiles-notation: O=c1cc(-c2ccccc2)oc2cc(OCCCCc3cn(CCOCCOCCOc4ccc(-c5cc(=O)c6cc(F)ccc6o5)cc4)nn3)ccc12
log10 EC50: 1.49
//
smiles-notation: O=c1cc(-c2ccccc2)oc2cc(OCCOCCOCCn3cc(COCCOc4ccc5c(=O)cc(-c6ccccc6)oc5c4)nn3)ccc12
log10 EC50: 1.77
//
smiles-notation: O=c1cc(-c2ccccc2)oc2cc(OCCCc3cn(CCOCCOCCOc4ccc(-c5cc(=O)c6cc(F)ccc6o5)cc4)nn3)ccc12
log10 EC50: 1.99

Next item in the queue.
# input Entry COC(=O)c1cccc(COc2c(-c3ccc(OCCOCCOCCn4cc(CCCOc5ccc6c(=O)cc(-c7ccccc7)oc6c5)nn4)cc3)oc3ccccc3c2=O)c1 has what log10 EC50?
# output 0.85

* * *

Catalogue of pEC50 values
measurement-notes: Inhibition of P-gp (unknown origin) expressed in human LCC6MDR cells assessed as reversal of paclitaxel resistance after 5 days by MTS/PMS assay
Convention used: pEC50 is expressed as -log10 of the molar concentration.

smiles-notation: COC(=O)c1cccc(COc2c(-c3ccc(OCCOCCn4cc(COCCOc5ccc6c(=O)cc(-c7ccccc7)oc6c5)nn4)cc3)oc3ccccc3c2=O)c1
pEC50: 6.36

Next, consider the following compound.
# input Value lookup for pEC50; key = O=c1cc(-c2ccccc2)oc2cc(OCCOCCOCCn3cc(CN(CCOc4ccc5c(=O)cc(-c6ccccc6)oc5c4)Cc4ccccc4)nn3)ccc12
# output 6.39

* * *

measurement-notes: Inhibition of BCRP in human MCF7/MX100 cells assessed as reversal of topotecan resistance after 5 days by MTS/PMS assay
molecules and their reported pEC50
Lab note — pEC50 values are minus log10 of concentrations in M.

smiles-notation: Cc1ccc2oc(-c3ccc(OCCCCc4cn(CCN(CCOc5ccc(-c6cc(=O)c7ccccc7o6)cc5)Cc5ccccc5)nn4)cc3)cc(=O)c2c1
result: 7.41

# input Which pEC50 value belongs to O=c1cc(-c2ccccc2)oc2cc(OCCN(Cc3ccccc3)Cc3cn(CCOCCOCCOc4ccc(-c5oc6ccccc6c(=O)c5OCc5ccccc5)cc4)nn3)ccc12 ?
# output 7.16

# input Also check Cc1ccc2oc(-c3ccc(OCCOCCOCCn4cc(CCCCOc5ccc6c(=O)cc(-c7ccccc7)oc6c5)nn4)cc3)cc(=O)c2c1
# output 7.34

# input Record: COC(=O)c1cccc(COc2c(-c3ccc(OCCOCCOCCn4cc(CN5CCN(Cc6cn(CCOCCOCCOc7ccc(-c8oc9ccccc9c(=O)c8OCc8cccc(C(=O)OC)c8)cc7)nn6)CC5)nn4)cc3)oc3ccccc3c2=O)c1
# output 7.40

# input Try this molecule next: O=c1cc(-c2ccc(OCCOCCOCCn3cc(CCCCOc4ccc5c(=O)cc(-c6ccccc6)oc5c4)nn3)cc2)oc2ccccc12
# output 7.74

# input # repeat for Cc1ccc2oc(-c3ccc(OCCCCc4cn(CCOCCOc5ccc(-c6oc7ccccc7c(=O)c6OCc6ccccc6)cc5)nn4)cc3)cc(=O)c2c1
# output 7.62

* * *

Reported EC50 values are given for each entry in this list.
measurement-notes: Inhibition of BCRP (unknown origin) transfected in HEK293/R2 cells assessed as reversal of topotecan resistance after 5 days by MTS/PMS assay
Numeric only. Scale: nM

smiles-notation: O=c1cc(-c2ccccc2)oc2cc(OCCOCCOCCn3cc(CN(Cc4ccccc4)Cc4cn(CCOCCOCCOc5ccc6c(=O)cc(-c7ccccc7)oc6c5)nn4)nn3)ccc12
EC50 (nM): 83

# input For the compound shown here, Cc1ccc2oc(-c3ccc(OCCOCCOCCn4cc(CN(CCOc5ccc6c(=O)cc(-c7ccccc7)oc6c5)Cc5ccccc5)nn4)cc3)cc(=O)c2c1 , give the reported EC50.
# output 55

# input Same read-out for O=c1cc(-c2ccccc2)oc2cc(OCCCc3cn(CCOCCOCCOc4ccc(-c5cc(=O)c6cc(F)ccc6o5)cc4)nn3)ccc12 ?
# output 38

# input Next record, please: Cc1ccc2oc(-c3ccc(OCCCCc4cn(CCOCCOc5ccc(-c6cc(=O)c7cc(F)ccc7o6)cc5)nn4)cc3)cc(=O)c2c1
# output 15

# input Please do the same for COC(=O)c1cccc(COc2c(-c3ccc(OCCOCCn4cc(CN(C)CCN(C)Cc5cn(CCOCCOc6ccc(-c7oc8ccccc8c(=O)c7OCc7cccc(C(=O)OC)c7)cc6)nn5)nn4)cc3)oc3ccccc3c2=O)c1 as well.
# output 133

# input Also Cc1ccc2oc(-c3ccc(OCCCCc4cn(CCOc5ccc6c(=O)cc(-c7ccccc7)oc6c5)nn4)cc3)cc(=O)c2c1 ?
# output 60

# input What do you have for COC(=O)c1cccc(COc2c(-c3ccc(OCCOCCn4cc(CN(Cc5ccccc5)Cc5cn(CCOCCOc6ccc(-c7oc8ccccc8c(=O)c7OCc7cccc(C(=O)OC)c7)cc6)nn5)nn4)cc3)oc3ccccc3c2=O)c1 ?
# output 5.3

# input And for Cc1ccc2oc(-c3ccc(OCCCCc4cn(CCOCCOCCOc5ccc(-c6cc(=O)c7cc(F)ccc7o6)cc5)nn4)cc3)cc(=O)c2c1 ?
# output 58

# input Now consider Cc1ccc2oc(-c3ccc(OCCCCc4cn(CCOCCOCCOc5ccc(-c6oc7ccccc7c(=O)c6OCc6ccccc6)cc5)nn4)cc3)cc(=O)c2c1 and answer again.
# output 24

# input Try COC(=O)c1cccc(COc2c(-c3ccc(OCCOCCOCCn4cc(CN(Cc5cn(CCOCCOCCOc6ccc(-c7oc8ccccc8c(=O)c7OCc7cccc(C(=O)OC)c7)cc6)nn5)c5ccccc5)nn4)cc3)oc3ccccc3c2=O)c1 next.
# output 5.8

# input O=c1cc(-c2ccccc2)oc2cc(OCCCCc3cn(CCOCCOCCOc4ccc(-c5oc6ccccc6c(=O)c5OCc5ccccc5)cc4)nn3)ccc12 , same question.
# output 35

# input Now try O=c1cc(-c2ccccc2)oc2cc(OCCOCCOCCn3cc(CN(CCOc4ccc5c(=O)cc(-c6ccccc6)oc5c4)Cc4ccccc4)nn3)ccc12 .
# output 54

# input Now try O=c1cc(-c2ccc(OCCOCCOCCn3cc(CCCOc4ccc(-c5cc(=O)c6ccc(F)cc6o5)cc4)nn3)cc2)oc2ccccc12 .
# output 24

* * *

measurement-notes: Inhibition of BCRP in human MCF7/MX100 cells assessed as reversal of topotecan resistance after 5 days by MTS/PMS assay
Here, each record is paired with measured EC50 data.
Write it as a number; the unit nM goes unstated.

The following compounds have reported results that may help.
smiles-notation: COC(=O)c1cccc(COc2c(-c3ccc(OCCOCCOCCn4cc(CCCOc5ccc(-c6cc(=O)c7ccc(F)cc7o6)cc5)nn4)cc3)oc3ccccc3c2=O)c1
result: 2.3
//
smiles-notation: O=c1cc(-c2ccccc2)oc2cc(OCCOCCOCCn3cc(CN(CCOc4ccc5c(=O)cc(-c6ccccc6)oc5c4)Cc4ccccc4)nn3)ccc12
result: 58
//
smiles-notation: COC(=O)c1cccc(COc2c(-c3ccc(OCCOCCn4cc(CCCOc5ccc6c(=O)cc(-c7ccccc7)oc6c5)nn4)cc3)oc3ccccc3c2=O)c1
result: 24
//
smiles-notation: O=c1cc(-c2ccc(OCCOCCn3cc(COCCOc4ccc5c(=O)cc(-c6ccccc6)oc5c4)nn3)cc2)oc2ccccc12
result: 235
//
smiles-notation: Cc1ccc2oc(-c3ccc(OCCCCc4cn(CCOc5ccc6c(=O)cc(-c7ccccc7)oc6c5)nn4)cc3)cc(=O)c2c1
result: 223
//
smiles-notation: Cc1ccc2oc(-c3ccc(OCCCCc4cn(CCOCCOc5ccc(-c6cc(=O)c7ccccc7o6)cc5)nn4)cc3)cc(=O)c2c1
result: 33
//
smiles-notation: COC(=O)c1cccc(COc2c(-c3ccc(OCCOCCn4cc(CN5CCCN(Cc6cn(CCOCCOc7ccc(-c8oc9ccccc9c(=O)c8OCc8cccc(C(=O)OC)c8)cc7)nn6)CC5)nn4)cc3)oc3ccccc3c2=O)c1
result: 55
//
smiles-notation: O=c1c(OCc2ccccc2)c(-c2ccc(OCCOCCOCCn3cc(CN(Cc4ccccc4)Cc4cn(CCOCCOCCOc5ccc(-c6oc7ccccc7c(=O)c6OCc6ccccc6)cc5)nn4)nn3)cc2)oc2ccccc12
result: 26

# input If you can, please state the reported EC50 value of O=c1cc(-c2ccc(OCCOCCOCCn3cc(COCCOc4ccc5c(=O)cc(-c6ccccc6)oc5c4)nn3)cc2)oc2ccccc12 .
# output 340

# input What do you get for COC(=O)c1cccc(COc2c(-c3ccc(OCCOCCn4cc(COCCOc5ccc6c(=O)cc(-c7ccccc7)oc6c5)nn4)cc3)oc3ccccc3c2=O)c1 ?
# output 18

# input Follow-up entry: O=c1cc(-c2ccccc2)oc2cc(OCCN(Cc3ccccc3)Cc3cn(CCOCCOc4ccc(-c5cc(=O)c6cc(F)ccc6o5)cc4)nn3)ccc12
# output 54

The origin of these recorded values is BindingDB's records for doi:10.1021/acs.jmedchem.9b00963.
